Recorded Toxic dose values for a group of molecules are listed next.
# method notes: Compound dose toxic against macrophages of Trypanosoma cruzi
# Format: ADME
Expressed in µM, but write only the number.

Record excerpt, results attached:
chemical structure | units label | assay result
CC1=C(NCCCNCCCCNCCCNC2=C(C)C(=O)c3ccccc3C2=O)C(=O)c2ccccc2C1=O | µM | 1
CN1CCN(C(=O)CCCCCC2=C(CCCCCC(=O)N3CCN(C)CC3)C(=O)c3c(O)cccc3C2=O)CC1 | µM | 3

Q) Can you look up the measured Toxic dose of CC1=C(CCC(=O)NCCCN2CCN(C)CC2)C(=O)c2ccccc2C1=O for me?
A) 30

---

# system: Trypanothione reductase (Trypanosoma cruzi, UniProt P28593)
# Sequence (P28593 whole entry): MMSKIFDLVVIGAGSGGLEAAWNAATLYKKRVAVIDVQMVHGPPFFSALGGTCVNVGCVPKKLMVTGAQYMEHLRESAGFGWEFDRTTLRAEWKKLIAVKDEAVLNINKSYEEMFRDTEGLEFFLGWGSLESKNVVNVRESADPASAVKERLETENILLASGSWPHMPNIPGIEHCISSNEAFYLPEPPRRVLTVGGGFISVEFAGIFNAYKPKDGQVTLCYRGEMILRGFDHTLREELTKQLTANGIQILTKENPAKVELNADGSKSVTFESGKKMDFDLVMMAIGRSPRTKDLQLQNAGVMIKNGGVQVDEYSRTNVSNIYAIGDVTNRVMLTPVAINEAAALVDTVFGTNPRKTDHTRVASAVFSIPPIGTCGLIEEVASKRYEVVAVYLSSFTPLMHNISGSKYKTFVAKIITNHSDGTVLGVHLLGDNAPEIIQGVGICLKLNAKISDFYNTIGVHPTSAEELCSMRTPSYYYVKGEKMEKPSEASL
# method notes: Inhibitory activity against Trypanosoma cruzi trypanothione disulfide reductase, assay in presence of 57 uM T(S)2.
parameter measured: IC50

Please review the following examples before continuing.
chemical structure | parameter measured | assay result
O=C(O)CCCCC1=C(CCCCC(=O)O)C(=O)c2c(O)cccc2C1=O | IC50 | > 50 µM
CC1=C(CCC(=O)O)C(=O)c2c(O)cccc2C1=O | IC50 | > 50 µM
CC1=C(NCCCCN)C(=O)c2c(O)cccc2C1=O | IC50 | > 57 µM
CC1=C(CCNC(=O)OC(C)(C)C)C(=O)c2c(O)cccc2C1=O | IC50 | > 25 µM
CC1=C(NCCCCN)C(=O)c2ccccc2C1=O | IC50 | > 57 µM

Q) State the recorded IC50 for this entry: CN1CCN(C(=O)CCC2=C(CCC(=O)N3CCN(C)CC3)C(=O)c3c(O)cccc3C2=O)CC1
A) > 50 µM

Q) Please do the same for CC1=C(CCCCNC(=O)OC(C)(C)C)C(=O)c2ccccc2C1=O as well.
A) > 25 µM

Q) Follow-up item: CC1=C(CCCCCNC(=O)OC(C)(C)C)C(=O)c2c(O)cccc2C1=O
A) > 25 µM

Q) What about this compound? CC1=C(CCC(=O)NCCCN2CCN(CCCNC(=O)CCC3=C(C)C(=O)c4cccc(O)c4C3=O)CC2)C(=O)c2c(O)cccc2C1=O
A) 2.6 µM

Q) CC1=C(O)c2cccc(O)c2C(=O)/C1=N\CCCN1CCN(C)CC1 , same question.
A) > 57 µM

Q) Same again, this time with CC1=C(CCCCCNC(=O)OC(C)(C)C)C(=O)c2ccccc2C1=O
A) > 50 µM

Q) Cool, now CC1=C(CCCC(=O)O)C(=O)c2ccccc2C1=O
A) > 50 µM

Q) Likewise for O=C(O)CCCCCC1=C(CCCCCC(=O)O)C(=O)c2ccccc2C1=O ?
A) > 50 µM

Q) Try CC1=C(NCCCNCCCCNCCCN)C(=O)c2c(O)cccc2C1=O next.
A) 28 µM

Q) Check CC1=C(CCCC(=O)NCCCNCCCNC(=O)CCCC2=C(C)C(=O)c3cccc(O)c3C2=O)C(=O)c2c(O)cccc2C1=O too.
A) 2 µM

Q) Now the same for CC1=C(CCCC(=O)NCCCN2CCN(CCCNC(=O)CCCC3=C(C)C(=O)c4ccccc4C3=O)CC2)C(=O)c2ccccc2C1=O
A) 4.5 µM

Q) What do you get for CC1=C(CCCCC(=O)NCCCN2CCN(CCCNC(=O)CCCCC3=C(C)C(=O)c4ccccc4C3=O)CC2)C(=O)c2ccccc2C1=O ?
A) 1.12 µM

Q) Queued: CC1=C(CCCC(=O)O)C(=O)c2c(O)cccc2C1=O
A) > 50 µM

Q) Subsequent entry: CC1=C(CCCNC(=O)OC(C)(C)C)C(=O)c2ccccc2C1=O
A) > 50 µM
